All figures here come from PubChem BioAssay (NCI).

test system: MCF7 breast; experiment: NCI tumour cell line growth inhibition, 48 h
ATTRIBUTE MEASURED: TGI

Look over these answered cases.
>  <COMPOUND>
COc1ccc(-c2ccccc2)cc1-c1c(Nc2cc(Cl)cc(Cl)c2O)c(=O)c1=O

>  <TGI>
> 50 µM

$$$$
>  <COMPOUND>
Cc1ccc(Oc2nc3ccccc3cc2-c2nnc(Cn3c(COc4ccccc4)nc4ccccc43)o2)cc1

>  <TGI>
5.38 µM

$$$$
>  <COMPOUND>
Cc1ccc(C[P+](c2ccccc2)(c2ccccc2)c2ccccc2)cc1

>  <TGI>
> 33 µM

$$$$

Q: // query TGI value for entry Nc1c(S(=O)(=O)O)cc(Nc2cccc(S(=O)(=O)/C=C/S(=O)(=O)O)c2)c2c1C(=O)c1ccccc1C2=O
A: > 100 µM

Q: Query NCCCCNC1(c2cc3ccccc3s2)CCCCC1 next
A: 9.75 µM

Q: Query O=[N+]([O-])c1ccc(Cl)cc1C=NC12CC3CC(CC(C3)C1)C2 next
A: > 100 µM

Q: Query Cc1ccccc1C(C(=O)NC1CCCCC1)N(C(=O)Cn1ccnc1C)c1cccc(F)c1 (centres undefined) next
A: > 100 µM

Q: Query COc1ccc(-c2cc(-c3nnc(SCC(=O)Nc4ccc(C(C)=O)cc4)o3)c3ccccc3n2)cc1 next
A: > 100 µM

Q: Query COc1ccc(/C=C\c2cc(OC)c(OC)c(OC)c2)cc1OCC(=O)Nc1nc2ccc(OC(F)(F)F)cc2s1 next
A: > 100 µM

====

tested on: MDA-MB-435; experiment: NCI tumour cell line growth inhibition, 48 h
Overview of recorded GI50 for various molecules

>  <MOLECULE>
COc1cc2c(cc1OC)-c1c(c3ccc([N+](=O)[O-])cc3c(=O)n1CCCN)C2=O

>  <GI50>
7230 nM

$$$$

Q: // query GI50 value for entry Cc1cc(NC(=O)NC(=O)c2ccccc2NC(=O)CN)ccc1Oc1ncc(Br)cn1
A: 39.9 nM

Q: Query CC1(C)Cc2c(Br)c(Br)c(Br)c(OCC(O)CN3CCOCC3)c2O1 (stereo unspecified) next
A: 15500 nM

Q: Query COc1cc(-c2n/c(=C\c3c(O)[nH]c4ccccc34)cc3c2=Nc2ccccc2-3)cc(OC)c1OC next
A: 1680 nM

Q: Query COc1cc2ncn(-c3cc(OCc4ccccc4S(C)(=O)=O)c(C#N)s3)c2cc1OC next
A: > 25000 nM

Q: Query O=[N+]([O-])/C=C/c1ccc([N+](=O)[O-])cc1 next
A: 1740 nM

====

test system: NCI-H460 lung
The reply should be one of these categories: active, inactive

>  <COMPOUND>
COc1cc2ncn(-c3cc(OCc4ccccc4S(C)(=O)=O)c(C#N)s3)c2cc1OC

>  <DISCRETE LABEL>
inactive

$$$$
>  <COMPOUND>
CNCCOC(=O)/C=C1/CCC2C(C(O)CC3C(C)(C(=O)OC)CCCC23C)C1C (configuration not stated)

>  <DISCRETE LABEL>
active

$$$$
>  <COMPOUND>
OCc1ccc(Oc2c3ccccc3nc3occc23)cc1

>  <DISCRETE LABEL>
inactive

$$$$
>  <COMPOUND>
CCC(=O)c1ccc2c(c1)N(CCCN1CCN(CCO)CC1)c1ccccc1S2

>  <DISCRETE LABEL>
inactive

$$$$
>  <COMPOUND>
Oc1ccc(CN(Cc2ccc(C(F)(F)F)cc2)Cc2ccc(O)c3ncccc23)c2cccnc12

>  <DISCRETE LABEL>
active

$$$$

Q: What call does the record list for Cc1ccccc1C(C(=O)NC1CCCCC1)N(C(=O)Cn1ccnc1C)c1cccc(F)c1 (configuration not stated) ?
A: inactive

Q: Query O=C(Nc1cccc(-n2ccc3c(NC(=O)c4ccccc4)nccc32)c1)c1cc(N2CCOCC2)cc(C(F)(F)F)c1 next
A: active

Q: Query COc1ccc(-n2c(C)nc3c(c(C)nn3-c3ccccc3)c2=O)cc1 next
A: active

Q: Query COc1ccc(-c2ccccc2)cc1-c1c(Nc2cc(Cl)cc(Cl)c2O)c(=O)c1=O next
A: inactive

Q: Query O=C1OCC2=C1C(c1cccc(C(F)(F)F)c1)c1cc3c(cc1N2CCO)CCC3 (configuration not stated) next
A: active

====

Overview of recorded TGI for various compounds
tested on: MOLT-4 leukemia; experiment: NCI tumour cell line growth inhibition, 48 h
Hi! Could you send only the number? It should be in µM, unit omitted.

Look over these answered cases.
>  <COMPOUND>
CCOC(=O)/C(=C\c1ccc(F)cc1)C(C)=O

>  <SYSTEM TESTED>
MOLT-4 leukemia

>  <TGI, µM>
89

$$$$
>  <COMPOUND>
CS(=O)(=O)O.[Ag]

>  <SYSTEM TESTED>
MOLT-4 leukemia

>  <TGI, µM>
5.3

$$$$
>  <COMPOUND>
CN1CCC(n2[nH]c(-c3ccccc3)c(Cc3ccccc3)c2=O)CC1

>  <SYSTEM TESTED>
MOLT-4 leukemia

>  <TGI, µM>
89.7

$$$$
>  <COMPOUND>
CC1(C)Cc2c(Br)c(Br)c(Br)c(OCC(O)CN3CCOCC3)c2O1 (stereo unspecified)

>  <SYSTEM TESTED>
MOLT-4 leukemia

>  <TGI, µM>
14.1

$$$$

Q: # get_value(readout= TGI, system= MOLT-4 leukemia) for COc1ccc2c(c1)[C@@]1(C)CCC3c4ccc(O)cc4CCC3C1C2 (stereo partly specified)
A: 64.2

Q: Query COc1ccc(-c2csc3c2-n2cccc2C3=O)cc1O next
A: 6.1

Q: Query COc1cc2c(cc1OCCCN1CCN(c3cc(=O)oc4c(C)c(OC)ccc34)CC1)N=C[C@@H]1CCCN1C2=O next
A: 3.7

Q: Query CC1(C)[C@@H]2C[C@H]1C(Cc1cccc(C[C@H]3c4cc(-c5ccccn5)ncc4[C@H]4C[C@@H]3C4(C)C)c1)c1cc(-c3ccccn3)ncc12 (stereo partly specified) next
A: 1.91

Q: Query CCCCCCN1CCN(Cc2ccc(N(CC)CC)cc2)C(=O)C1=O next
A: 32.8

Q: Query CC1CCC2(CC1)N=C1CCC(C)CC1C1(CCC(C)CC1)N2 (stereo unspecified) next
A: 95.3

Q: Query COc1cc2c(cc1OC)-c1c(c3ccc([N+](=O)[O-])cc3c(=O)n1CCCN)C2=O next
A: 1.6

====

system: HS 578T breast; assay: NCI tumour cell line growth inhibition, 48 h
Overview of recorded TGI for various compounds
Hi! Could you send only the number? It should be in µM, unit omitted.

Q: // query TGI value for entry Cc1ccc(/C(=C/C=C(C#N)C#N)Sc2ccccn2)cc1
A: 8.32

Q: Query O=C1OCC2=C1C(c1cccc(C(F)(F)F)c1)c1cc3c(cc1N2CCO)CCC3 (stereo not given) next
A: 7.72

====

tested on: PC-3 prostate; assay: NCI tumour cell line growth inhibition, 48 h
Overview of recorded TGI for various compounds

>  <COMPOUND>
OCC(O)C(O)C(O)C(/C=N\Nc1ncnc2ccc(Br)cc12)=N/Nc1ncnc2ccc(Br)cc12 (stereo unspecified)

>  <EXPERIMENTAL RESULT>
> 100 µM

$$$$
>  <COMPOUND>
O=C(/C=C\c1ccc2ccccc2n1)c1cc(Cl)ccc1O

>  <EXPERIMENTAL RESULT>
38.2 µM

$$$$
>  <COMPOUND>
CN1C(=O)C(c2c[nH]c3ccccc23)=C(c2c(-c3c[nH]c4ccccc34)[nH]c3ccccc23)C1=O

>  <EXPERIMENTAL RESULT>
17.3 µM

$$$$
>  <COMPOUND>
O=C(OCc1ccccc1)N1c2cc([N+](=O)[O-])ccc2C(=O)N2CCC[C@H]2C1O (stereo partly specified)

>  <EXPERIMENTAL RESULT>
> 100 µM

$$$$
>  <COMPOUND>
CO/C(=N\N=C\c1cccc(C(F)(F)F)c1)c1ccncc1

>  <EXPERIMENTAL RESULT>
> 100 µM

$$$$

Q: // query TGI value for entry CC(=O)OC12CC(C)C3(O)C4C=C(C)C(=O)[C@@]4(O)CC(CO)=C[C@H]3C1C2(C)C (stereo partly specified)
A: > 1000 µM

Q: Query NC1=NC(c2ccc(F)cc2)C2=C(N1)c1ccc3ccccc3c1OCC2 (stereo unspecified) next
A: > 100 µM

Q: Query NCCCCNC1(c2cc3ccccc3s2)CCCCC1 next
A: 17.3 µM

Q: Query C/C=C\C(CC(=O)NCCC1CN(C(=O)c2ccccc2)c2ccccc21)CC(=O)OC (stereo unspecified) next
A: > 100 µM

Q: Query CC(C)(C)c1cc(C2COC(=O)COCC(=O)OCCOCCOCCO2)cc(C(C)(C)C)c1O (stereo unspecified) next
A: > 100 µM

Q: Query COc1ccc(/C=C2\CN(C)Cc3c2[nH]c(=O)c(C#N)c3-c2ccc(OC)cc2)cc1 next
A: > 100 µM

Q: Query COc1ccc(-c2cc(-c3nnc(SCC(=O)Nc4ccc(C(C)=O)cc4)o3)c3ccccc3n2)cc1 next
A: > 100 µM

Q: Query Cc1cc2nc3c4cccc(O)c4n(CCN(C)C)c3nc2cc1C next
A: 12.8 µM

Q: Query O=C1/C(=C/c2ccco2)NC(=S)N1CN1CCOCC1 next
A: > 100 µM
